// values below are reported fold-change KD relative to chimeric
- Target under test: T1, Human PSMA antigen (human, UniProt Q04609 44-750, limits assumed)
- T1 construct: This is the antigen immobilised on the Biacore chip; also called FOLH1_HUMAN
- T1 sequence (Q04609 44-750 limits assumed): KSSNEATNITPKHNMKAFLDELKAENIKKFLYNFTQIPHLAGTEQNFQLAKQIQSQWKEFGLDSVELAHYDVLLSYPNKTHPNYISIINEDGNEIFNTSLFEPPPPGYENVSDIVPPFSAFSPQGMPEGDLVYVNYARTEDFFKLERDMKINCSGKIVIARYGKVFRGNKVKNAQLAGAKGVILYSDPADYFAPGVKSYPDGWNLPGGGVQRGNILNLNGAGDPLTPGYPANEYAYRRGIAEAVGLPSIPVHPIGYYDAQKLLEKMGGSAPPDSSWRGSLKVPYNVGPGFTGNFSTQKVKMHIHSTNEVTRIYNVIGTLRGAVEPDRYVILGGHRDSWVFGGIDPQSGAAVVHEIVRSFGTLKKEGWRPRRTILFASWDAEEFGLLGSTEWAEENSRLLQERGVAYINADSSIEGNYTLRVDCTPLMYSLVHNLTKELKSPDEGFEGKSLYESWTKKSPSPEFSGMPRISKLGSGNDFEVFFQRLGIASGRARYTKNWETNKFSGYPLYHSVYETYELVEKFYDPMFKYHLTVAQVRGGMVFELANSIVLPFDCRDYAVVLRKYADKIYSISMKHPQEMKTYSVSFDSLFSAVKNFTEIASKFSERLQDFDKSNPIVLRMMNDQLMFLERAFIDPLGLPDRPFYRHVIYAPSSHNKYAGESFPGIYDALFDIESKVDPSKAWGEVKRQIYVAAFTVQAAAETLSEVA
- Assay comment: SPR (Biacore), 37 C, antibody over immobilized PSMA
Answer in fold, number only, no unit symbol.

// below: answered binders
**Q:** Give fold-change KD relative to chimeric for huJ591 (J591_VH-2 + J591_VL-2) (antibody, human IgG1, V domains shown, One of the 9 huJ591 versions; Human IgG1 frameworks) VH: QVQLVQSGAEVKKPGASVKVSCKASGYTFTEYTMHWVRQAPGQGLEWMGNINPNNGGTTYNQKFQGRVTMTVDKSISTAYMELSRLRSDDTAVYYCAAGWNFDYWGQGTLVTVSS VL: DIQLTQSPSFLSASVGDRVTITCRASQDVGTALDWYQQKPGKAPKLLIYWASTRHSGVPSRFSGSGSGTEFTLTISSLQPEDFATYYCQQYNSYPLTFGQGTKLEIK
**A:** 23.3

**Q:** Give fold-change KD relative to chimeric for murine J591 (antibody, V domains shown, also called original mouse antibody J591; mouse J591) VH: EVQLQQSGPELVKPGTSVRISCKTSGYTFTEYTIHWVKQSHGKSLEWIGNINPNNGGTTYNQKFEDKATLTVDKSSSTAYMELRSLTSEDSAVYYCAAGWNFDYWGQGTTLTVSS VL: DIVMTQSHKFMSTSVGDRVSIICKASQDVGTAVDWYQQKPGQSPKLLIYWASTRHTGVPDRFTGSGSGTDFTLTITNVQSEDLADYFCQQYNSYPLTFGAGTMLDLKR
**A:** 31

***
**Q:** Give fold-change KD relative to chimeric for huJ591 (J591_VH-3 + J591_VL-3) (antibody, human IgG1, V domains shown, One of the 9 huJ591 versions; Human IgG1 frameworks) VH: QVQLVQSGAEVKKPGASVKVSCKASGYTFTEYTMHWVRQAPGQRLEWMGNINPNNGGTTYSQKFQGRVTITVDKSASTAYMELSSLRSEDTAVYYCAAGWNFDYWGQGTLVTVSS VL: DIVMTQSPSSLSASVGDRVTITCRASQDVGTALDWYQQKPGKAPELLIYWASSLHSGVPSRFRGSGSGTDFTLTISSVQPEDFATYYCQQYNSYPLTFGQGTKLEIK
**A:** 57.8
